- protocol: chemical genetic growth profiling, strain panel (AID 1159580);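 note: tested at 20 µM; growth read once vehicle control cultures reached saturation at 30 °C; 1 = growth at the plate median or of vehicle wells; lower values mean less growth of the strain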
- condition-notes: S. cerevisiae deletion strains, growth OD, locus YOL012C, strain htz1
Hit rate of the full screen: of about 5,500 compounds, about 2,000 (36%) were called active. Not shown: some 18% with an inconclusive outcome. Some of the results follow.
measurement-kind: normalized growth
One number for each entry.

Example entries begin here.
molecule	measurement-kind	measured-result
C/C=C/CC(C)C(O)C1C(=O)NC(CC)C(=O)N(C)CC(=O)N(C)C(CC(C)C)C(=O)NC(C(C)C)C(=O)N(C)C(CC(C)C)C(=O)NC(C)C(=O)NC(C)C(=O)N(C)C(CC(C)C)C(=O)N(C)C(CC(C)C)C(=O)N(C)C(C(C)C)C(=O)N1C (centres undefined)	normalized growth	1.73
C[C@@H](CO)NC(=O)C1C=C2c3cccc4[nH]cc(c34)C[C@H]2N(C)C1 (some centres undefined)	normalized growth	0.782
NC(N)=Nc1ccc(Cl)cc1	normalized growth	1.11

Qu. Recall and state the measured normalized growth for NC(=O)c1ccc([N+](=O)[O-])cc1Cl .
Ans. 0.79
